All values here come from ChEMBL document CHEMBL1153651.

- targetDesc: UniProt P31423
- Sequence (P31423 whole entry): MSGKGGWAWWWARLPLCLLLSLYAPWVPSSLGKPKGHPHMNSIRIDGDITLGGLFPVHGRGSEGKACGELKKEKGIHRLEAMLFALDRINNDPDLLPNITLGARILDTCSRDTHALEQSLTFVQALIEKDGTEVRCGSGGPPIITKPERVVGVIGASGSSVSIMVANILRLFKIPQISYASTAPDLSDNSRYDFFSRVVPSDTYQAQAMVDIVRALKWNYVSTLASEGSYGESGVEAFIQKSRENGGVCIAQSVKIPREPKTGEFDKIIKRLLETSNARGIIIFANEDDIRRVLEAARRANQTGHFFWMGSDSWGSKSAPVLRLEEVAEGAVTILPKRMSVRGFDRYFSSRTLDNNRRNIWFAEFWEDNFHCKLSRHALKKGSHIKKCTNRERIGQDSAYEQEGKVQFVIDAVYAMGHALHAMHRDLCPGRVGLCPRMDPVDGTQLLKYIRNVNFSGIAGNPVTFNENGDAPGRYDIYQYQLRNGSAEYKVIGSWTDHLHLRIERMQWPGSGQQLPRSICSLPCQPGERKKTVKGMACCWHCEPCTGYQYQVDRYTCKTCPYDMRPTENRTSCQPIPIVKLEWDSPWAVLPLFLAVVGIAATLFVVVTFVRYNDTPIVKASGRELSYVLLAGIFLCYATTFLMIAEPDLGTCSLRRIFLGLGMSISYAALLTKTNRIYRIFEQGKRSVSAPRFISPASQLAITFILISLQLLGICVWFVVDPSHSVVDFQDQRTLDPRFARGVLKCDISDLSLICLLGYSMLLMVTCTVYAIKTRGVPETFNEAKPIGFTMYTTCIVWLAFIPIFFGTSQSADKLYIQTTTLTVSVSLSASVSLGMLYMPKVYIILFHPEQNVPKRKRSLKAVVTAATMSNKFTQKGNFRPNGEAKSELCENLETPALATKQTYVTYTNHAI
property: IC50 (µM)
Numbers only, in µM.

Field IC50 (UniProt P31423), entry "O=C(O)C[C@H]1CN[C@@H]1C(=O)O" : 315

----------
- Species: Rattus norvegicus
- protocolSummary: Compound was tested in vitro for binding affinity against calcium chloride dependent glutamate uptake site, using [3H]L-AP4 as the radioligand in rat cortical membranes.
- Format: functional
property: pIC50
Answers are plain numbers, as −log10 of the molar value.

Briefly, pIC50 measured for "O=C(O)C[C@H]1CN[C@@H]1C(=O)O" : 4.48

----------
- targetDesc: Glutamate NMDA receptor
- protocolSummary: Compound was tested in vitro for binding affinity against NMDA receptor, using [3H]CPP as the radioligand in rat cerebral cortical membranes.
property: pIC50
Give bare numbers, as −log10 of the molar value.

Briefly, pIC50 measured for "O=C(O)C[C@H]1CN[C@@H]1C(=O)O" : 4.31

----------
- targetDesc: Glutamate receptor 1 (Rattus norvegicus)
- Sequence (P19490 whole entry): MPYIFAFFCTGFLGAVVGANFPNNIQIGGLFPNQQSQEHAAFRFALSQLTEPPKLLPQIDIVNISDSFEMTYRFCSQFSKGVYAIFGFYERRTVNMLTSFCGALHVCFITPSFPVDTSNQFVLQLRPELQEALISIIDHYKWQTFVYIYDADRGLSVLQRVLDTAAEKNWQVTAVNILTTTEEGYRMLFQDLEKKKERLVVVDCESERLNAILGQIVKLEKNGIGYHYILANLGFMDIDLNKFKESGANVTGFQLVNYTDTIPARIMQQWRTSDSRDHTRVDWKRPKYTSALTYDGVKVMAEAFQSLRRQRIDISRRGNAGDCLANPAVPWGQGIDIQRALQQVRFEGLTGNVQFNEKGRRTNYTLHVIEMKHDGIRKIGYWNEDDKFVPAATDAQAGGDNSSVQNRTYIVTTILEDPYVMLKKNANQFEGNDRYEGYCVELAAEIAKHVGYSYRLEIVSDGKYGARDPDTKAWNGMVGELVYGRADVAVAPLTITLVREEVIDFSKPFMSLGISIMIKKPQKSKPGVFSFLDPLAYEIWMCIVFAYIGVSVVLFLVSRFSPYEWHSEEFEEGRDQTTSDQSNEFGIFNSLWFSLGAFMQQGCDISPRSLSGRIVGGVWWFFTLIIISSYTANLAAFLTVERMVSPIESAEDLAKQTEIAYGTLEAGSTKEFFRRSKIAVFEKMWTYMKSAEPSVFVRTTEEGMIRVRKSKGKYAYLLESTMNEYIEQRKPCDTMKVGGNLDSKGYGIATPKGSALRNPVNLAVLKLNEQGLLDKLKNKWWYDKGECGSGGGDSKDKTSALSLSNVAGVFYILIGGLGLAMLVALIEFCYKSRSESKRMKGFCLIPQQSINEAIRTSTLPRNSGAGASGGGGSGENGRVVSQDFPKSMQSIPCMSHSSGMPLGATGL
pIC50: −log10 of the molar value.
property: pIC50

Briefly, pIC50 measured for "O=C(O)C[C@H]1CN[C@@H]1C(=O)O" : < 3.18

----------
- targetDesc: Metabotropic glutamate receptor 2 (Homo sapiens, UniProt Q14416)
- Sequence (Q14416 whole entry): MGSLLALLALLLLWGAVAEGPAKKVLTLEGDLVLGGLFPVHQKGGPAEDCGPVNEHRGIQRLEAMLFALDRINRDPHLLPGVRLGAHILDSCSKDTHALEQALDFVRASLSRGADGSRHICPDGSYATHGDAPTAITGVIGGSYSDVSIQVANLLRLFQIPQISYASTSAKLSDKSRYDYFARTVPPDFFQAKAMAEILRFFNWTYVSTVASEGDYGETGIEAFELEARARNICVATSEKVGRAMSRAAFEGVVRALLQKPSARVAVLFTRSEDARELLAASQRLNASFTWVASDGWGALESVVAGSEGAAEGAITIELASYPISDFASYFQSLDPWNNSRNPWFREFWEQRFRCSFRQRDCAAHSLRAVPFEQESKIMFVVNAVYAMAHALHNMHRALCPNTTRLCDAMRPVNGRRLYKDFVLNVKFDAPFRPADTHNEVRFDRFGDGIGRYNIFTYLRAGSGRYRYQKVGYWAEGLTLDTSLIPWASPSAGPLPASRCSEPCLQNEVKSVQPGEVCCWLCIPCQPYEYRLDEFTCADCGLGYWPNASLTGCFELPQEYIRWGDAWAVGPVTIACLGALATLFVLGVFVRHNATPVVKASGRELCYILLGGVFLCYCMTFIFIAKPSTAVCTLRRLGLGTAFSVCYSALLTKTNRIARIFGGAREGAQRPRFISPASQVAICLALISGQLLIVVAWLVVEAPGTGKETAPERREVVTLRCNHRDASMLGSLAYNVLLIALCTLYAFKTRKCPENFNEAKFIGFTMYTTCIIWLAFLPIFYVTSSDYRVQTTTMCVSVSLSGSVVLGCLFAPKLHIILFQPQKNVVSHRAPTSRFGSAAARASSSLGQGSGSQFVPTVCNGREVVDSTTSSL
- protocolSummary: Compound was tested for its agonist activity against mGluR 2 receptor in CHO cells.
property: EC50

Briefly, EC50 measured for "O=C(O)C[C@H]1CN[C@@H]1C(=O)O" : > 600 µM

----------
- targetDesc: Metabotropic glutamate receptor 6 (Homo sapiens)
- Sequence (O15303 whole entry): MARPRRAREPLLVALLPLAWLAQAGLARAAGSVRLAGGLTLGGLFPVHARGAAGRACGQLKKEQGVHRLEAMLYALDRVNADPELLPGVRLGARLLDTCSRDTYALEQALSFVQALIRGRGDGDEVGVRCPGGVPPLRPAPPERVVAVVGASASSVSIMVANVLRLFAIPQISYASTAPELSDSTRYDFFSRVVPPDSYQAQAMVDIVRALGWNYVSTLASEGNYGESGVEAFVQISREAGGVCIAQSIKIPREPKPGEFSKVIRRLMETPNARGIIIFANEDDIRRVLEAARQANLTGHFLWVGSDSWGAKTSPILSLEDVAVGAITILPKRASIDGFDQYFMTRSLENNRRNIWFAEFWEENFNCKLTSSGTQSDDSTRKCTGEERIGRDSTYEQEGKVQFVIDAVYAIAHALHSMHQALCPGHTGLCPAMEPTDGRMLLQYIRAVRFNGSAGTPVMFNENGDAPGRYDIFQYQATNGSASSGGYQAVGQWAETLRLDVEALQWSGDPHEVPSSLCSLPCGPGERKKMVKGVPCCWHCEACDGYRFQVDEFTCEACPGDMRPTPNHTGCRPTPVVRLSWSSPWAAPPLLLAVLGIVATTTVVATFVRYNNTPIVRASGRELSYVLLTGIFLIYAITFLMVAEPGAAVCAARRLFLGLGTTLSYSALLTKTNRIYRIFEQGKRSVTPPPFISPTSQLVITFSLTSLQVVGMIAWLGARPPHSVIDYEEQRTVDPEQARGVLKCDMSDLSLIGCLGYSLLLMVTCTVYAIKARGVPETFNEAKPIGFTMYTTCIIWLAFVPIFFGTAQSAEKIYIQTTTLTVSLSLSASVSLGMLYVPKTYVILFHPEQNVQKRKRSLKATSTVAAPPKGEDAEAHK
- protocolSummary: Compound was tested for its agonist activity against mGluR 6 receptor in CHO cells.
- Format: functional, cell-based, Cricetulus griseus
property: IC50

Briefly, IC50 measured for "O=C(O)C[C@H]1CN[C@@H]1C(=O)O" : > 300 µM

----------
- targetDesc: Metabotropic glutamate receptor 2 (Homo sapiens, UniProt Q14416)
- protocolSummary: Compound was tested for its antagonist activity against mGluR 2 receptor in CHO cells.
property: IC50

Field IC50 (Metabotropic glutamate receptor 2 (Homo sapiens, UniProt Q14416)), entry "O=C(O)C[C@H]1CN[C@@H]1C(=O)O" : > 600 µM

----------
- targetDesc: Glutamate receptor ionotropic, AMPA (Rattus norvegicus, UniProt P19490+P19491+P19492+P19493)
- protocolSummary: Compound was tested in vitro for binding affinity against Ionotropic glutamate receptor AMPA, using [3H]AMPA as the radioligand in rat cerebral cortical membranes.
property: IC50 (µM)
One number for each entry, in µM.

Briefly, IC50 measured for "O=C(O)C[C@H]1CN[C@@H]1C(=O)O" : 13

----------
- targetDesc: Metabotropic glutamate receptor 5 (Homo sapiens)
- Sequence (P41594 whole entry): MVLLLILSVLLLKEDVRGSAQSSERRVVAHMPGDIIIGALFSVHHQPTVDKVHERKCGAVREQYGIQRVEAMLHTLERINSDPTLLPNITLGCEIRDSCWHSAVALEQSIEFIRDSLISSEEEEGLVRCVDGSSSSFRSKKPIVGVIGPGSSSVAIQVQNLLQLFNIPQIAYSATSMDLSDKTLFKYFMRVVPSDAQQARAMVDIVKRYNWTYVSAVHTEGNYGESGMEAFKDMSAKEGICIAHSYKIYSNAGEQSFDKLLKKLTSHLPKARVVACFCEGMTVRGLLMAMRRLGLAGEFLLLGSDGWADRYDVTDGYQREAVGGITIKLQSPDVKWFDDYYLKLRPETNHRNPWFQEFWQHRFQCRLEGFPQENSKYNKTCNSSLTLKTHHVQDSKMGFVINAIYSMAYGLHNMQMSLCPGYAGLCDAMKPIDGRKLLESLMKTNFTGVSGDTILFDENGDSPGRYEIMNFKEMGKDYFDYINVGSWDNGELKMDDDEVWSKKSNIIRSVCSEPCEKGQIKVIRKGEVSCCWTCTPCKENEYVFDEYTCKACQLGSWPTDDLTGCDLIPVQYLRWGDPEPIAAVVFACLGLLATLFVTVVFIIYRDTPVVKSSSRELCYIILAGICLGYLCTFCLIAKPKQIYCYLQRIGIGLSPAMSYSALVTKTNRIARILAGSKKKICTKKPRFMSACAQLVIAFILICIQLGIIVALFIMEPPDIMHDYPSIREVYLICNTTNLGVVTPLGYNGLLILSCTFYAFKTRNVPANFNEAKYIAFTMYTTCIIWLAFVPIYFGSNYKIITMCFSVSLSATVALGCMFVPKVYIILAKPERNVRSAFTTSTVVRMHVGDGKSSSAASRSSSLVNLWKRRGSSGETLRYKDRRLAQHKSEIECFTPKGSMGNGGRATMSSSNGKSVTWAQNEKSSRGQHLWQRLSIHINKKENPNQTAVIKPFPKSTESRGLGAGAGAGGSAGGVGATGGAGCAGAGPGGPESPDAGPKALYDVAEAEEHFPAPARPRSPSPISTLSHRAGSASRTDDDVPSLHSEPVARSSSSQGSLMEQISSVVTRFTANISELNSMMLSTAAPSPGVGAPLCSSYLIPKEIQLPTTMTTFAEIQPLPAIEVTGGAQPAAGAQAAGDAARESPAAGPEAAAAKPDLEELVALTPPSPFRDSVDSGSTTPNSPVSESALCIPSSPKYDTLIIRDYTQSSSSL
- protocolSummary: Compound was tested for its agonist activity against mGluR 5a receptor in CHO cells.
property: pEC50
Answers are plain numbers, as −log10 of the molar value.

Briefly, pEC50 measured for "O=C(O)C[C@H]1CN[C@@H]1C(=O)O" : 3.98
